All values here come from a melting point compilation (Tetko et al.).

Listed next: entries and their corresponding melting point.
attribute-measured: melting point (°C)

[
  {
    "molecule": "CCOC(=O)c1nn(-c2ccc(C)cc2)c(C)c1C(=O)C1=NOC2C(=O)N(c3ccccc3C)C(=O)C12 (centres undefined)",
    "attribute-measured": "melting point",
    "quantitative-result": 200
  },
  {
    "molecule": "CCOC(=O)/C=C/[C@@H]1[C@@H](c2ccccc2)N1C(=O)c1ccccc1",
    "attribute-measured": "melting point",
    "quantitative-result": 118
  },
  {
    "molecule": "O=C(O)c1ccc(O)c(O)c1",
    "attribute-measured": "melting point",
    "quantitative-result": 201
  },
  {
    "molecule": "Cc1ccsc1C(=O)O",
    "attribute-measured": "melting point",
    "quantitative-result": 147
  },
  {
    "molecule": "O=C1C(=Cc2ccc(O)c(O)c2)Oc2cc(O)ccc21",
    "attribute-measured": "melting point",
    "quantitative-result": 303
  },
  {
    "molecule": "O=[N+]([O-])c1ccc(CBr)cc1",
    "attribute-measured": "melting point",
    "quantitative-result": 99
  },
  {
    "molecule": "CCCCCCCCCCCCCCCCCC(N)=O",
    "attribute-measured": "melting point",
    "quantitative-result": 109
  },
  {
    "molecule": "CC(=O)Oc1ccccc1C(C)=O",
    "attribute-measured": "melting point",
    "quantitative-result": 90
  },
  {
    "molecule": "Cn1c(/C(C#N)=N/Nc2ccc(Cl)cc2Cl)nc2ccccc21",
    "attribute-measured": "melting point",
    "quantitative-result": 160
  },
  {
    "molecule": "N#C/C(=N\\Nc1ccc(Cl)cc1)c1nc2ccccc2c(=O)[nH]1",
    "attribute-measured": "melting point",
    "quantitative-result": 253
  },
  {
    "molecule": "Nc1ccccc1S",
    "attribute-measured": "melting point",
    "quantitative-result": 26
  },
  {
    "molecule": "CCOC(=O)C1C(c2ccccc2)C(C(=O)OCC)C(O)(C(F)(F)F)NC1(O)C(F)(F)F (centres undefined)",
    "attribute-measured": "melting point",
    "quantitative-result": 234
  },
  {
    "molecule": "CC(C=CC=C(C)C(=O)O)=CC=CC=C(C)C=CC=C(C)C(=O)O",
    "attribute-measured": "melting point",
    "quantitative-result": 286
  },
  {
    "molecule": "Nc1c(F)ccc(F)c1Cl",
    "attribute-measured": "melting point",
    "quantitative-result": 29
  },
  {
    "molecule": "Nc1ncnc2c1ncn2C1(CO)OC(CO)C(O)C1O (centres undefined)",
    "attribute-measured": "melting point",
    "quantitative-result": 212
  },
  {
    "molecule": "Nc1c(Cl)cc(C(=O)O)cc1Cl",
    "attribute-measured": "melting point",
    "quantitative-result": 292
  }
]

###

[
  {
    "mol": "Cc1nnc2n1-c1sc(Br)cc1C(c1ccccc1Cl)=NC2",
    "melting point / °C": 213
  },
  {
    "mol": "CCCCCCCCCCCCCCOCCOCCOCCOCCOCCOCCO",
    "melting point / °C": 32.5
  },
  {
    "mol": "CCCC(=O)N(CSP(=S)(OC)OC)c1ccccc1Cl",
    "melting point / °C": 42
  },
  {
    "mol": "CC(C)(C)c1ccc2c(c1)-c1cc(C(C)(C)C)ccc1C2",
    "melting point / °C": 81
  },
  {
    "mol": "CCOC(=O)C1(S(=O)(=O)c2ccc(C)cc2)CC1",
    "melting point / °C": 75.5
  },
  {
    "mol": "ClCc1c2ccccc2cc2ccccc12",
    "melting point / °C": 140
  }
]

###

Field: class. Source value: melting point. Ranges: lower range = under 80 °C, middle range = from 80 °C up to 100 °C, upper range = 100 °C and over

[
  {
    "compound": "O=Cc1cc(Br)ccc1O",
    "assigned-class": "upper range"
  },
  {
    "compound": "CC(O)C(O)(c1ccccc1)c1ccccc1 (stereo not drawn)",
    "assigned-class": "middle range"
  },
  {
    "compound": "CC1(C)CC(=O)C(=NNc2cccc([N+](=O)[O-])c2)C(=O)C1",
    "assigned-class": "upper range"
  },
  {
    "compound": "O=[N+]([O-])c1cccc(OCCBr)c1",
    "assigned-class": "lower range"
  },
  {
    "compound": "Cn1c(/C(C#N)=N/Nc2cc(Cl)ccc2Cl)nc2ccccc21",
    "assigned-class": "upper range"
  },
  {
    "compound": "Cc1cc(Cl)c(N=C=O)cc1N=C=O",
    "assigned-class": "lower range"
  },
  {
    "compound": "COc1ccc(COC(C)=O)cc1",
    "assigned-class": "middle range"
  },
  {
    "compound": "CC(Cc1ccccc1)c1ccccc1 (stereo not drawn)",
    "assigned-class": "lower range"
  },
  {
    "compound": "CC1(C)OC(=O)C(=Cc2ccc(Br)o2)C(=O)O1",
    "assigned-class": "upper range"
  },
  {
    "compound": "COc1cc(C=O)ccc1OC(C)=O",
    "assigned-class": "lower range"
  },
  {
    "compound": "CSc1nc(NC(C)C)nc(NC(C)C)n1",
    "assigned-class": "upper range"
  }
]

###

[
  {
    "compound": "CN(C)c1ccc(/C=C(/C#N)C(N)=S)cc1",
    "melting point, °C": 189
  },
  {
    "compound": "Clc1ccc2cccc(Cl)c2c1",
    "melting point, °C": 63.5
  },
  {
    "compound": "CON=O",
    "melting point, °C": -16
  },
  {
    "compound": "Brc1c(Br)c(Br)c(-c2c(Br)c(Br)c(Br)c(Br)c2Br)c(Br)c1Br",
    "melting point, °C": 375
  },
  {
    "compound": "CCCCCCC(C)CCCCCC",
    "melting point, °C": -37.2
  },
  {
    "compound": "O=C(O)C(F)(F)C(F)(F)C(F)(F)C(F)(F)C(F)(F)C(F)(F)C(F)(F)C(F)F",
    "melting point, °C": 67
  },
  {
    "compound": "CC1Cc2ccccc2N1NC(=O)c1ccc(Cl)c(S(N)(=O)=O)c1 (stereo not given)",
    "melting point, °C": 161
  },
  {
    "compound": "Cc1cc(C)c(S(=O)(=O)NN)c(C)c1",
    "melting point, °C": 114
  },
  {
    "compound": "CC1CCC(C)(C(=O)CN2C(=O)c3ccccc3C2=O)C1(C)C (stereo not given)",
    "melting point, °C": 99
  },
  {
    "compound": "CCC1CN2CCc3c([nH]c4cccc(OC)c34)C2CC1C(=COC)C(=O)OC (stereo not given)",
    "melting point, °C": 104
  },
  {
    "compound": "CCC(COC(=O)c1cc(OC)c(OC)c(OC)c1)(c1ccccc1)N(C)C (stereo not given)",
    "melting point, °C": 79
  },
  {
    "compound": "CC12CCC(=O)C(Cl)=C1CCC1C2CCC2(C)C(O)CCC12 (stereo not given)",
    "melting point, °C": 189
  },
  {
    "compound": "COc1ccccc1C1Nn2c(nnc2-c2ccc([N+](=O)[O-])cc2)S1 (stereo not given)",
    "melting point, °C": 152
  },
  {
    "compound": "CC(CS)C(=O)N1CCCC1C(=O)O (stereo not given)",
    "melting point, °C": 106
  },
  {
    "compound": "Cc1ccc2[nH]c(C)c(C)c2c1",
    "melting point, °C": 122
  }
]

###

Listed next: entries and their corresponding melting point.

[
  {
    "mol": "O=C=Nc1ccc(I)cc1",
    "melting point, °C": 45
  },
  {
    "mol": "COc1ccc(Cc2cnc(N)nc2N)cc1OC",
    "melting point, °C": 233
  },
  {
    "mol": "Cc1ccc(CCCC(=O)O)cc1",
    "melting point, °C": 57
  },
  {
    "mol": "Fc1cc(Br)c(F)cc1Br",
    "melting point, °C": 62
  },
  {
    "mol": "O=[N+]([O-])OCC(CO[N+](=O)[O-])O[N+](=O)[O-]",
    "melting point, °C": 14
  },
  {
    "mol": "CCCCCCCCCCCC=O",
    "melting point, °C": 44.5
  },
  {
    "mol": "CC(=O)CCc1oc2ccc(C)cc2c1-c1ccc(C)o1",
    "melting point, °C": 76
  },
  {
    "mol": "Nc1c(Br)cc(F)cc1Br",
    "melting point, °C": 65
  },
  {
    "mol": "O=C(O)c1ccc(Br)c([N+](=O)[O-])c1",
    "melting point, °C": 204
  },
  {
    "mol": "COC(=O)C1=C(C)NC(C)=C(C(=O)OC)C1c1ccccc1[N+](=O)[O-]",
    "melting point, °C": 173
  },
  {
    "mol": "Cc1cc(C(C)(C)C)ccc1O",
    "melting point, °C": 27.5
  }
]
